Record form. Attribute: IC50. Fill in for each entry.
# system.under.test: 5-hydroxytryptamine receptor 1D (Homo sapiens, UniProt P28221)
# Sequence (P28221 whole entry): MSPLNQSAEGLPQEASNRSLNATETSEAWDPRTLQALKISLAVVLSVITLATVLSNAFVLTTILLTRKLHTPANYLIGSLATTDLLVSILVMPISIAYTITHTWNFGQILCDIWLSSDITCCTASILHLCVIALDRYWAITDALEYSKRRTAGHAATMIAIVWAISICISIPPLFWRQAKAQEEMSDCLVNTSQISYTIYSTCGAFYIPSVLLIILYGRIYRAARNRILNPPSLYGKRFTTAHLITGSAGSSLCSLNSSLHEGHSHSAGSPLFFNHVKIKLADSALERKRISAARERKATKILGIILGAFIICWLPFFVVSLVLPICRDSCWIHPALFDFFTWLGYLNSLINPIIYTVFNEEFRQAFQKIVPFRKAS
# protocol.notes: Displacement of specific [3H]5-HT binding to cloned human 5-hydroxytryptamine 1D receptor expressed in CHO cells
# Format: cell-based
Your answer is read as nM, so omit the unit and give the number.

Ask: Param readout = IC50; param system = 5-hydroxytryptamine receptor 1D (Homo sapiens, UniProt P28221); param query = F[C@H]1CN(CCCc2c[nH]c3ccc(-n4cnnc4)cc23)CC[C@@H]1NCc1ccccc1C(F)(F)F ; response: value
Reply: 5

Ask: Would you kindly repeat that for FC(F)(Cc1c[nH]c2ccc(-n3cnnc3)cc12)CN1CCC(Cc2ccccc2)CC1 ?
Reply: 78

Ask: Lookup CN(Cc1ccccc1C(F)(F)F)[C@H]1CCN(CCCc2c[nH]c3ccc(-n4cnnc4)cc23)C[C@@H]1F
Reply: 13

Ask: Again, but for CN(Cc1ccccc1C(F)(F)F)[C@H]1CCN(CCCc2c[nH]c3ccc(-n4cnnc4)cc23)C[C@H]1F
Reply: 9.3

Ask: Ok, now Fc1ccccc1CCC1(F)CCN(CCCc2c[nH]c3ccc(-n4cnnc4)cc23)CC1
Reply: 0.8

Ask: Let us now turn to CC(CN1CCN(CC(F)Cc2c[nH]c3ccc(-n4cnnc4)cc23)CC1)c1ccccc1F (centres undefined)
Reply: 1

Ask: Entry Fc1cccc(CCN2CCN(CC(F)Cc3c[nH]c4ccc(-n5cnnc5)cc34)CC2)c1 (stereo in doubt; 25) please
Reply: 3.5

Ask: Lookup CC(CN1CCN(CC(F)Cc2c[nH]c3ccc(-n4cnnc4)cc23)CC1)c1cccc(F)c1 (centres undefined)
Reply: 0.9

Ask: How about FC(F)(Cc1c[nH]c2ccc(-n3cnnc3)cc12)CN1CCC(COc2ccccc2)CC1 ?
Reply: 280

Ask: Check c1ccc(CC2CCN(CCCc3c[nH]c4ccc(-n5cnnc5)cc34)CC2)cc1 too.
Reply: 0.3

Ask: Try c1ccc(CN2CCN(CCCc3c[nH]c4ccc(-n5cnnc5)cc34)CC2)cc1 next.
Reply: 0.14

Ask: Entry to check: FC1(CCc2ccccc2)CCN(CCCc2c[nH]c3ccc(-n4cnnc4)cc23)CC1
Reply: 2

Ask: Queued: FC(Cc1c[nH]c2ccc(-n3cnnc3)cc12)CN1CCC(OCc2ccccc2)CC1 (centres undefined)
Reply: 30

Ask: Same again, this time with FC(Cc1c[nH]c2ccc(-n3cnnc3)cc12)CN1CCC(Cc2ccccc2)CC1 (centres undefined)
Reply: 0.9

----------
# system.under.test: 5-hydroxytryptamine receptor 1D (Homo sapiens, UniProt P28221)
# protocol.notes: Agonist-induced [35S]GTP-gamma-S, binding in CHO cells stably transfected with human 5-hydroxytryptamine 1D receptor
assay.readout: EC50 (nM)
Just the number please, in nM, no unit attached.

Ask: Query (molecule): FC(Cc1c[nH]c2ccc(-n3cnnc3)cc12)CN1CCC(Cc2ccccc2)CC1 (stereo not drawn) ; field requested: EC50
Reply: 0.9

Ask: Query CC(CN1CCN(CC(F)Cc2c[nH]c3ccc(-n4cnnc4)cc23)CC1)c1cccc(F)c1 (stereo not drawn) next
Reply: 1.9

Ask: Now give it for FC1(Cc2ccccc2C(F)(F)F)CCN(CCCc2c[nH]c3ccc(-n4cnnc4)cc23)CC1 too.
Reply: 0.2

----------
# system.under.test: 5-hydroxytryptamine receptor 1B (Homo sapiens, UniProt P28222)
# Sequence (P28222 whole entry): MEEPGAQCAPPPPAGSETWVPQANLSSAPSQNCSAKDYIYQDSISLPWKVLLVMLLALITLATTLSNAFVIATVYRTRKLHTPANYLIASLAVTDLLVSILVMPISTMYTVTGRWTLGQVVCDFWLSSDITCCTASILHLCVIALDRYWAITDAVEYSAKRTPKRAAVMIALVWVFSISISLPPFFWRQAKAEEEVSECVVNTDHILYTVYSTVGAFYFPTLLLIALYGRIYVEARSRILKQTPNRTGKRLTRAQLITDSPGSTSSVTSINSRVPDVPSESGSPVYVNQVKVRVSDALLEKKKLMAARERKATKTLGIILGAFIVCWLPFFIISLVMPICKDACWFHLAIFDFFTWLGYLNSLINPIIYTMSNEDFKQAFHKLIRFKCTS
# protocol.notes: Efficacy was evaluated relative to human 5-HT1B receptor using [35S]GTP-gamma-S, as radioligand
# Type: functional
Ranges used to classify Efficacy: bin 0 = under 70%, bin 1 = from 70% up to 80%, bin 2 = 80% and over

Ask: Category of CC(CN1CCN(CC(F)Cc2c[nH]c3ccc(-n4cnnc4)cc23)CC1)c1cccc(F)c1 (stereo not drawn) :
Reply: bin 2

Ask: Check FC1(Cc2ccccc2C(F)(F)F)CCN(CCCc2c[nH]c3ccc(-n4cnnc4)cc23)CC1 too.
Reply: bin 2

Ask: Moving on to the next molecule: CC(CN1CCN(CC(F)(F)Cc2c[nH]c3ccc(-n4cnnc4)cc23)CC1)c1ccccc1 (stereo not drawn)
Reply: bin 0

Ask: Similarly, FC1(Cc2ccccc2)CCN(CCCc2c[nH]c3ccc(-n4cnnc4)cc23)CC1 ?
Reply: bin 0

Ask: Entry FC(Cc1c[nH]c2ccc(-n3cnnc3)cc12)CN1CCC(Cc2ccccc2)CC1 (stereo not drawn) please
Reply: bin 1

Ask: One more molecule: Fc1cccc(CCC2(F)CCN(CCCc3c[nH]c4ccc(-n5cnnc5)cc34)CC2)c1
Reply: bin 2

Ask: Item: Fc1cccc(CCN2CCN(CC(F)Cc3c[nH]c4ccc(-n5cnnc5)cc34)CC2)c1 (stereo in doubt; 25)
Reply: bin 0

Ask: Also CN(Cc1ccccc1)C1CCN(CC(F)Cc2c[nH]c3ccc(-n4cnnc4)cc23)CC1 (stereo not drawn) , if possible.
Reply: bin 0

Ask: Now the molecule CN(Cc1ccccc1)C1CCN(CCCc2c[nH]c3ccc(-n4cnnc4)cc23)CC1
Reply: bin 1

Ask: Again, but for c1ccc(CC2CCN(CCCc3c[nH]c4ccc(-n5cnnc5)cc34)CC2)cc1
Reply: bin 0

Ask: Moving on to the next molecule: CC(CC1(F)CCN(CCCc2c[nH]c3ccc(-n4cnnc4)cc23)CC1)c1ccccc1 (stereo not drawn)
Reply: bin 2

----------
# protocol.notes: Rate of clearance in rat was determined
# Type: ADME, organism-based
# run.conditions: plasma, read-out: Clp
For each of the compounds below, state its clearance.

Ask: Using the record for FC(F)(Cc1c[nH]c2ccc(-n3cnnc3)cc12)CN1CCC(OCc2ccccc2)CC1 , report its clearance.
Reply: 43 mL/min/kg

Ask: Same lookup for Fc1cccc(CCN2CCN(CCCc3c[nH]c4ccc(-n5cnnc5)cc34)CC2)c1 , please.
Reply: 84 mL/min/kg

Ask: Next record, please: Fc1cccc(CCN2CCN(CC(F)(F)Cc3c[nH]c4ccc(-n5cnnc5)cc34)CC2)c1
Reply: 67 mL/min/kg

----------
# protocol.notes: pKa value by potentiometric method
# Type: physicochemical
assay.readout: pKa
I'd appreciate a reply containing only the number, no unit.

Ask: Return reported pKa; argument: CN(Cc1ccccc1)[C@H]1CCN(CCCc2c[nH]c3ccc(-n4cnnc4)cc23)C[C@H]1F
Reply: 8

Ask: CN(Cc1ccccc1C(F)(F)F)[C@H]1CCN(CCCc2c[nH]c3ccc(-n4cnnc4)cc23)C[C@@H]1F ?
Reply: 6.9

Ask: Same thing, different compound: CN(Cc1ccccc1)C1CCN(CC(F)Cc2c[nH]c3ccc(-n4cnnc4)cc23)CC1 (stereo not drawn)
Reply: 8.5

Ask: # iterate: FC(F)(Cc1c[nH]c2ccc(-n3cnnc3)cc12)CN1CCC(OCc2ccccc2)CC1
Reply: 5.9

Ask: And the next one, FC(Cc1c[nH]c2ccc(-n3cnnc3)cc12)CN1CCC(Cc2ccccc2)CC1 (stereo not drawn) ?
Reply: 8.7

Ask: Also need CN(Cc1ccccc1C(F)(F)F)[C@H]1CCN(CCCc2c[nH]c3ccc(-n4cnnc4)cc23)C[C@H]1F , thanks.
Reply: 7.7

Ask: Subsequent entry: FC1(Cc2ccccc2)CCN(CCCc2c[nH]c3ccc(-n4cnnc4)cc23)CC1
Reply: 8.8

Ask: FC(F)(Cc1c[nH]c2ccc(-n3cnnc3)cc12)CN1CCC(Cc2ccccc2)CC1 ?
Reply: 6.7

----------
# system.under.test: 5-hydroxytryptamine receptor 1D (Homo sapiens)
# protocol.notes: Displacement of specific [3H]5-HT binding to cloned human 5-hydroxytryptamine 1D receptor expressed in CHO cells
assay.readout: IC50
Write the numeric value and append its unit.

Ask: What does the data say about its IC50? Entry: CN(Cc1ccccc1)C1CCN(CCCc2c[nH]c3ccc(-n4cnnc4)cc23)CC1
Reply: 2.1 nM

Ask: Consider next the compound Fc1cccc(CCN2CCN(C[C@@H](F)Cc3c[nH]c4ccc(-n5cnnc5)cc34)CC2)c1 in the same way.
Reply: 5.8 nM

Ask: What about Fc1ccccc1CCN1CCN(CC(F)Cc2c[nH]c3ccc(-n4cnnc4)cc23)CC1 (centres undefined) ?
Reply: 4.7 nM

Ask: Now the same for FC(F)(Cc1c[nH]c2ccc(-n3cnnc3)cc12)CN1CCC(OCc2ccccc2)CC1
Reply: 8.5 nM

Ask: Entry F[C@@H]1CN(CCCc2c[nH]c3ccc(-n4cnnc4)cc23)CC[C@@H]1NCc1ccccc1C(F)(F)F please
Reply: 13 nM

Ask: Query CC(CC1(F)CCN(CCCc2c[nH]c3ccc(-n4cnnc4)cc23)CC1)c1ccccc1 (centres undefined) next
Reply: 0.6 nM

Ask: Queued: OC(Cc1c[nH]c2ccc(-n3cnnc3)cc12)CN1CCN(Cc2ccccc2)CC1 (centres undefined)
Reply: 1.8 nM

Ask: Request: CC(CN1CCN(CC(F)(F)Cc2c[nH]c3ccc(-n4cnnc4)cc23)CC1)c1ccc(F)cc1 (centres undefined)
Reply: 1.8 nM

Ask: Please answer likewise for Fc1cccc(CCN2CCN(CC(F)Cc3c[nH]c4ccc(-n5cnnc5)cc34)CC2)c1 (stereo in doubt; 28)
Reply: 5.1 nM

Ask: Can you check FC(F)(Cc1c[nH]c2ccc(-n3cnnc3)cc12)CN1CCC(CCc2ccccc2)CC1 next?
Reply: 56 nM

Ask: Entry to check: Fc1cccc(CCC2(F)CCN(CCCc3c[nH]c4ccc(-n5cnnc5)cc34)CC2)c1
Reply: 0.7 nM

Ask: Also need CC(CN1CCN(CC(F)(F)Cc2c[nH]c3ccc(-n4cnnc4)cc23)CC1)c1ccccc1 (centres undefined) , thanks.
Reply: 6.2 nM

Ask: Record: FC1(Cc2ccccc2)CCN(CCCc2c[nH]c3ccc(-n4cnnc4)cc23)CC1
Reply: 0.9 nM

Ask: Input CC(CN1CCN(CC(F)Cc2c[nH]c3ccc(-n4cnnc4)cc23)CC1)c1ccc(F)cc1 (centres undefined)
Reply: 1 nM

Ask: Moving on to CN(Cc1ccccc1)[C@H]1CCN(CCCc2c[nH]c3ccc(-n4cnnc4)cc23)C[C@@H]1F
Reply: 2.1 nM

Ask: And then Fc1ccc(CCN2CCN(CC(F)Cc3c[nH]c4ccc(-n5cnnc5)cc34)CC2)cc1 (centres undefined) , what is it?
Reply: 5.5 nM

Ask: Could you do the same for FC(Cc1c[nH]c2ccc(-n3cnnc3)cc12)CN1CCN(CCc2ccccc2)CC1 (centres undefined) , please?
Reply: 6.8 nM

Ask: Subsequent entry: CN(Cc1ccccc1)[C@H]1CCN(CCCc2c[nH]c3ccc(-n4cnnc4)cc23)C[C@H]1F
Reply: 12 nM

Ask: And then Fc1ccccc1CC1(F)CCN(CCCc2c[nH]c3ccc(-n4cnnc4)cc23)CC1 , what is it?
Reply: 0.1 nM
